- Measured target: δ opioid receptor (Cavia porcellus, UniProt A0A286XTF2)
Readout: Ki
Note: a bare number is incomplete; add the unit.

QUERY: Under δ opioid receptor (Cavia porcellus, UniProt A0A286XTF2), report Ki for Oc1ccc2c(c1)[C@@]13CCCC[C@H]1[C@@H](C2)N(CCCF)CC3 [Compound 3]
RESULT: 850 pM

###

- Measured target: κ opioid receptor (Cavia porcellus)
Readout: Ki (nM)
Express your answer in nM, writing the number without its unit.

QUERY: Supply Ki measured with κ opioid receptor (Cavia porcellus) for COCCN1CC[C@]23CCCC[C@H]2[C@H]1Cc1ccc(O)cc13 [Compound 6] .
RESULT: 0.094

QUERY: Please indicate recorded Ki of Oc1ccc2c(c1)[C@@]13CCCC[C@H]1[C@@H](C2)N(CCCF)CC3 [Compound 3] measured with κ opioid receptor (Cavia porcellus).
RESULT: 0.083
